Test: Selectivity index, ratio of IC50 for cytotoxicity against human HFL1 cells to IC50 for antiproliferative activity against human HT-29 cells overexpressing NQO1
Format: toxicity, cell-based
Settings: HFL1 cells versus HT-29 cells overexpressing NQO1, read-out: Ratio IC50
Measured property: selectivity ratio
Simply state the number, no unit and no words.

IN: // Input: C=C(C)[C@@H]1CC[C@]2(C(=O)N3CCC(N4CCCCC4)CC3)CC[C@]3(C)[C@H](CC[C@@H]4[C@@]5(C)CC[C@H](O)[C@@](C)(COC(=O)CCC(=O)OCc6cn(C)c7c6C(=O)C(OC)=CC7=O)[C@@H]5CC[C@]43C)[C@@H]12 . Output its selectivity ratio only.
OUT: 3.71

IN: Read the entry C=C(C)[C@@H]1CC[C@]2(C(=O)NCCNC(=O)CCC(=O)OCc3cn(C)c4c3C(=O)C(OC)=CC4=O)CC[C@]3(C)[C@H](CC[C@@H]4[C@@]5(C)CC[C@H](OC(C)=O)[C@@](C)(COC(C)=O)[C@@H]5CC[C@]43C)[C@@H]12 and write its reported selectivity ratio.
OUT: 4.1

IN: Return reported selectivity ratio. Input compound: C=C(C)[C@@H]1CC[C@]2(C(=O)O)CC[C@]3(C)[C@H](CC[C@@H]4[C@@]5(C)CC[C@H](OC(=O)CCC(=O)OCc6cn(C)c7c6C(=O)C(OC)=CC7=O)[C@@](C)(COC(C)=O)[C@@H]5CC[C@]43C)[C@@H]12
OUT: 1.56

IN: Entry C=C(C)[C@@H]1CC[C@]2(C(=O)N(CCCN(C)C)C(=O)NCC)CC[C@]3(C)[C@H](CC[C@@H]4[C@@]5(C)CC[C@H](O)[C@@](C)(COC(=O)CCC(=O)OCc6cn(C)c7c6C(=O)C(OC)=CC7=O)[C@@H]5CC[C@]43C)[C@@H]12 needs its selectivity ratio filled in; supply it.
OUT: 1.23

IN: Look up and state reported selectivity ratio for C=C(C)[C@@H]1CC[C@]2(C(=O)O)CC[C@]3(C)[C@H](CC[C@@H]4[C@@]5(C)CC[C@H](O)[C@@](C)(COC(=O)CCCC(=O)OCc6cn(C)c7c6C(=O)C(OC)=CC7=O)[C@@H]5CC[C@]43C)[C@@H]12
OUT: 2.46

IN: Please supply the value of reported selectivity ratio for the item C=C(C)[C@@H]1CC[C@]2(C(=O)OCCOC(=O)CCC(=O)OCc3cn(C)c4c3C(=O)C(OC)=CC4=O)CC[C@]3(C)[C@H](CC[C@@H]4[C@@]5(C)CC[C@H](OC(=O)CCC(=O)N6CCNCC6)[C@@](C)(COC(C)=O)[C@@H]5CC[C@]43C)[C@@H]12
OUT: 1.99

IN: Input C=C(C)[C@@H]1CC[C@]2(C(=O)OCCOC(=O)CCC(=O)OCc3cn(C)c4c3C(=O)C(OC)=CC4=O)CC[C@]3(C)[C@H](CC[C@@H]4[C@@]5(C)CC[C@H](O)[C@@](C)(COC(=O)C6CCNCC6)[C@@H]5CC[C@]43C)[C@@H]12 , output reported selectivity ratio.
OUT: 1.7

IN: Give the reported selectivity ratio for this compound. C=C(C)[C@@H]1CC[C@]2(C(=O)OCCOC(=O)CCC(=O)OCc3cn(C)c4c3C(=O)C(OC)=CC4=O)CC[C@]3(C)[C@H](CC[C@@H]4[C@@]5(C)CC[C@H](O)[C@@](C)(CO)[C@@H]5CC[C@]43C)[C@@H]12
OUT: 4.16
